B1: ZBTB22 (parent)
chain: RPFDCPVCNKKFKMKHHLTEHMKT

Variants of: B1
Assay info: protein stability index of a GFP-peptide fusion (GPS, HEK-293T) (PSI 1-6); higher = more stable;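 note: lentivirally expressed fusions sorted by FACS into six bins by GFP to DsRed ratio, PSI derived from sequencing read proportions per bin multiplied by bin number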
Condition details: c terminus: a fixed tail appended
Reported protein stability index is given for each of the following variants.

INSERT INTO assay_data (mutations, value_reported) VALUES
  ('H16R', 2.29),
  ('F3D', 2.93),
  ('L18V', 3.5),
  ('K10I', 2.03),
  ('N9C', 2.43),
  ('C8V', 3.5);

Prompt line: Return value of protein stability index for input P6A , no commentary.
Response line: 2.65

Prompt line: Identify protein stability index associated with the variant V7R
Response line: 2.39

Prompt line: Assign protein stability index to the following record: M22A
Response line: 2.48

Prompt line: Supply recorded protein stability index for D4Y here.
Response line: 3.25

Prompt line: Return protein stability index (reported value) for this variant: K13Y
Response line: 2.72

Prompt line: Find the measured protein stability index of H17C and report it.
Response line: 2.25

Prompt line: Fill in reported protein stability index for this entry: K11W
Response line: 2.21

Prompt line: Specify reported protein stability index for the variant shown: V7C
Response line: 3.91

Prompt line: Note down protein stability index recorded for C5P
Response line: 3.23

// data source = the supplement of paper PMC10567573
